molecular target: Human immunodeficiency virus type 1 integrase (Human immunodeficiency virus 1); assay: Inhibition of wild-type HIV1 integrase 3'-processing activity using [32P]-labeled linear oligonucleotide substrate by polyacrylamide gel electrophoresis
Sequence (Q7ZJM1 whole entry): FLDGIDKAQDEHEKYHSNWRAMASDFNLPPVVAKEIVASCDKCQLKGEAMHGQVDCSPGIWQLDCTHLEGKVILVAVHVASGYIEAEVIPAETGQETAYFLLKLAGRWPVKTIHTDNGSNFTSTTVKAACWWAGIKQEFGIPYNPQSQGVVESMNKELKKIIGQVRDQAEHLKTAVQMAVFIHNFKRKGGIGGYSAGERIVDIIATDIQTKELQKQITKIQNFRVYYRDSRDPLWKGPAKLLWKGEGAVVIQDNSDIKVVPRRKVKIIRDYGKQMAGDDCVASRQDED
recorded metric: IC50

>  <molecule>
COC(=O)/C(O)=C/C(=O)c1ccc(F)cc1

>  <data value>
> 100 µM

$$$$
>  <molecule>
COC(=O)/C(O)=C/C(=O)c1ccccc1F

>  <data value>
> 100 µM

$$$$
>  <molecule>
O=C(CC(=O)c1cccc(OCc2ccccc2)c1)C(=O)N1CCN(C(=O)C(=O)CC(=O)c2cccc(OCc3ccccc3)c2)CC1

>  <data value>
56 µM

$$$$
>  <molecule>
O=C(CC(=O)c1cccc(OCc2ccccc2)c1)C(=O)NC1CCC(NC(=O)C(=O)CC(=O)c2cccc(OCc3ccccc3)c2)CC1 (centres undefined)

>  <data value>
> 100 µM

$$$$
>  <molecule>
O=C(CC(=O)c1ccc(F)cc1)C(=O)N1CCN(C(=O)C(=O)CC(=O)c2ccc(F)cc2)CC1

>  <data value>
> 100 µM

$$$$

(Q) # query: IC50 of entry Cc1cc(C(=O)/C=C(\O)C(=O)O)ccc1Cl
(A) 94 µM

(Q) Please answer likewise for O=C(CC(=O)c1ccc(C(F)(F)F)cc1)C(=O)NC1CCC(NC(=O)C(=O)CC(=O)c2ccc(C(F)(F)F)cc2)CC1 (centres undefined)
(A) > 100 µM

(Q) Again, but for COc1ccc(C(=O)/C=C(\O)C(=O)O)cc1OCc1ccccc1
(A) 55 µM

(Q) Item: O=C(O)/C(O)=C/C(=O)c1ccccc1F
(A) > 100 µM

(Q) Now consider O=C(O)/C(O)=C/C(=O)c1ccc([N+](=O)[O-])cc1 and answer again.
(A) > 100 µM

(Q) Entry to check: O=C(O)/C(O)=C/C(=O)c1ccccc1
(A) > 100 µM

---

molecular target: Human immunodeficiency virus type 1 integrase (Human immunodeficiency virus 1); assay: Inhibition of wild-type HIV1 integrase strand transfer activity using [32P]-labeled linear oligonucleotide substrate by polyacrylamide gel electrophoresis
pIC50: −log10 of the molar value.
recorded metric: pIC50

>  <compound>
O=C(CC(=O)c1ccccc1Cl)C(=O)NC1CCN(C(=O)C(=O)CC(=O)c2ccccc2Cl)CC1

>  <recorded metric>
pIC50

>  <data value>
4.51

$$$$

P. O=C(CC(=O)c1cccc(OCc2ccccc2)c1)C(=O)NC1CCC(NC(=O)C(=O)CC(=O)c2cccc(OCc3ccccc3)c2)CC1 (stereo not given)
Q. O=C(CC(=O)c1ccccc1Cl)C(=O)NC1CCC(NC(=O)C(=O)CC(=O)c2ccccc2Cl)CC1 (stereo not given)
(Q) Consider entries P and Q . Which has the numerically lower pIC50? Indicate your choice by writing its label.
(A) Q
(Q: 4.52, P: 5.15)

---

target: Human immunodeficiency virus type 1 integrase (Human immunodeficiency virus 1); assay: Inhibition of wild-type HIV1 integrase 3'-processing activity using [32P]-labeled linear oligonucleotide substrate by polyacrylamide gel electrophoresis
pIC50: −log10 of the molar value.
recorded metric: pIC50

>  <smiles input>
O=C(CC(=O)c1ccccc1Cl)C(=O)NC1CCN(C(=O)C(=O)CC(=O)c2ccccc2Cl)CC1

>  <experimental target>
Human immunodeficiency virus type 1 integrase (Human immunodeficiency virus 1)

>  <pIC50>
4.00

$$$$

a. COC(=O)/C(O)=C/C(=O)c1cccc(NC(=O)OCc2ccccc2)c1
b. O=C(O)/C(O)=C/C(=O)c1cccc(OCc2ccccc2)c1
(Q) Between a and b , whose recorded pIC50 is greater? Refer to your chosen item by its label in the answer.
(A) b
